# tgt: human orexin type 2 receptor (hOX2R) (Homo sapiens, UniProt O43614)
# Construct: expressed in transfected cells
# Sequence (O43614 whole entry): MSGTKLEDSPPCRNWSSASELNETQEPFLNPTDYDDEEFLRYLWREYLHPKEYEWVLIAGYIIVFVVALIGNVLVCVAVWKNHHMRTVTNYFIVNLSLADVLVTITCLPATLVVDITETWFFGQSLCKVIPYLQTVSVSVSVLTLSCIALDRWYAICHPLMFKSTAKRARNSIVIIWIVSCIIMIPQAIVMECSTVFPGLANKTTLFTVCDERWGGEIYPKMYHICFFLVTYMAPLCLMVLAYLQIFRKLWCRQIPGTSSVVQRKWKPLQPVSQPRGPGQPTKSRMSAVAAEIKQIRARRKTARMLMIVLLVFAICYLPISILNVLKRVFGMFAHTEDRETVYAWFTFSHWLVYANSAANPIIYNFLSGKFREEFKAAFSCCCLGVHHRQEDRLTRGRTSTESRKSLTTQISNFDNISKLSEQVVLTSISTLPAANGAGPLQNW
# protocol.description: Measurement of orexin type 2 receptor agonist activity (FLIPR calcium fluorescence)
# Format: cell-based
# measurement.parameters: CHO cells expressing hOX2R, FLIPR calcium fluorescence; read-out: hOx2 pEC50 (converted)
Assign EC50 to each entry below.

Completed entries (count: 2):
COC1CN(C(=O)N2CC3(CC3)[C@H](NS(=O)(=O)CF)[C@@H]2Cc2cccc(-c3cccc(F)c3)c2F)C1	1 to 10 nM
COC[C@H]1CCN1C(=O)N1CC2(CC2)[C@H](NS(C)(=O)=O)[C@@H]1Cc1cccc(-c2ccccc2)c1F	10 to 100 nM

Kindly consider the entry below.
Task: Under human orexin type 2 receptor (hOX2R) (Homo sapiens, UniProt O43614): report EC50 of O=C([C@H]1CCO1)N1CC2(CC2)[C@H](NS(=O)(=O)CF)[C@@H]1Cc1cc(F)cc(-c2cc(F)cc(F)c2)c1F .
Result: 1 to 10 nM
